What inhibition at 1 µM was measured for each of the following?
# target_desc: human HDAC3/NCOR1 (Homo sapiens, UniProt O15379)
# Construct: purchased ENZO Life Sciences AG (Lausen, CH)
# Sequence (O15379 whole entry): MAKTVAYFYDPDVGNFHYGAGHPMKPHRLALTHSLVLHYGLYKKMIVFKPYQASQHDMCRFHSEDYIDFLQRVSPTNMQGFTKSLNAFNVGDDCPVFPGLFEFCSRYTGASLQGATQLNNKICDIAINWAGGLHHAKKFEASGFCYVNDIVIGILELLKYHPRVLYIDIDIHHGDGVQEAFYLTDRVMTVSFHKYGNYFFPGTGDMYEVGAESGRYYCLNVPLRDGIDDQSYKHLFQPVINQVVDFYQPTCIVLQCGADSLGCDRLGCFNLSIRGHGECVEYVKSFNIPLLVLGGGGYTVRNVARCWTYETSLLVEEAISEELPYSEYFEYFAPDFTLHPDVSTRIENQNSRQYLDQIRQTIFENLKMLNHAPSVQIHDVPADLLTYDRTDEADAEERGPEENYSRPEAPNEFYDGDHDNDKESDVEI
# Sequence (O75376 395-489 partner limits assumed): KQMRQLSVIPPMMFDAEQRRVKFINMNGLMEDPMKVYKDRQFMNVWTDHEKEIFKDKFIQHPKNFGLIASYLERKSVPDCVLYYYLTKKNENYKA
# test_method_notes: In vitro HDAC3 inhibition assay, fluorogenic p53 peptide Ac-RHKK(Acetyl)-AMC
# Type: biochemical
# test_conditions: read-out: HDAC3 % inhibition @ 1 µM
Just the number in %, nothing appended.

What reported inhibition at 1 µM corresponds to CN1CCN(c2ncc(C(=O)Nc3ccccc3N)cn2)CC1 [19n] on human HDAC3/NCOR1 (Homo sapiens, UniProt O15379)?
13

Given the entry Cc1ccc(NC(=O)c2cnc(N3CCNCC3)cn2)c(N)c1 [27b] , what inhibition at 1 µM was observed with human HDAC3/NCOR1 (Homo sapiens, UniProt O15379)?
0

inhibition at 1 µM of "CC(=O)Nc1ccc(C(=O)Nc2ccccc2N)cc1" on human HDAC3/NCOR1 (Homo sapiens, UniProt O15379)?
32

For human HDAC3/NCOR1 (Homo sapiens, UniProt O15379), provide inhibition at 1 µM of Nc1ccc(-c2ccc(F)cc2)cc1NC(=O)c1cnc(N2CCN(CCc3c[nH]c4ccccc34)CC2)cn1 [21b] please.
0

Look up inhibition at 1 µM with human HDAC3/NCOR1 (Homo sapiens, UniProt O15379) for this compound: CN1CCN(c2cnc(C(=O)Nc3ccccc3N)cn2)CC1 [19o]
30

Request: inhibition at 1 µM, test system human HDAC3/NCOR1 (Homo sapiens, UniProt O15379), entry Cn1cc(CCN2CCN(c3cnc(C(=O)Nc4cc(-c5cccs5)ccc4N)cn3)CC2)c2ccccc21 [21a]
0

State its inhibition at 1 µM on human HDAC3/NCOR1 (Homo sapiens, UniProt O15379): Nc1ccc(C(F)(F)F)cc1NC(=O)c1cnc(N2CCNCC2)cn1 [27a]
0
